The reported numbers originate from patent US20250034169A1.

experiment: in vivo
Set-up: species or system BALB/c mice
run-parameters: BALB/c, mouse, iv, 2 mg/kg
Source text: The inventors performed a pharmacokinetic evaluation of the compounds of the present invention in mice. […]
property: MRT last (min)
Write down the numeric answer in min and omit the unit.

Exercise: Query (molecule): "C#Cc1nc(-c2cc(O)cc3cccc(Cl)c23)c(F)c2nc(OC[C@@]34CCCN3C[C@H](F)C4)nc(N3CC4CCC(C3)N4)c12" ; field requested: MRT last
Solution: 45

* * *

experiment: in vivo
Set-up: species or system BALB/c mice
run-parameters: BALB/c, mouse, iv, 2 mg/kg
property: Tmax (min)
Form entry: value (min) — number only.

Exercise: May I ask what Tmax has been recorded for "C#Cc1nc(-c2cc(O)cc3cccc(Cl)c23)c(F)c2nc(OC[C@@]34CCCN3C[C@H](F)C4)nc(N3CC4CCC(C3)N4)c12" ?
Solution: 4.98

* * *

experiment: in vivo
Parameters: species or system BALB/c mice
run-parameters: BALB/c, mouse, mice, intravenous, 2 mg/kg, read-out: Cl
property: clearance (mL/min/kg)
Give the number; mL/min/kg is assumed, so skip it.

Exercise: Query (molecule): "C#Cc1c(F)ccc2cc(O)cc(-c3nc(C#C)c4c(N5CC6CCC(C5)N6)nc(OC[C@@]56CCCN5C[C@H](F)C6)nc4c3F)c12" ; field requested: clearance
Solution: 16

* * *

Tested on: intracellular pERK
experiment: Inhibitory effect on intracellular pERK, In-Cell Western, AGS cells
Format: cell-based
run-parameters: Homo sapiens; AGS cells, 3 h incubation, In-Cell Western; read-out: Inhibitory effect on intracellular pERK, IC50
property: IC50 (nM)
I only need the number, in nM, no unit after it.

Check out these entries, answers already filled in.
cpd-smiles: C#Cc1nc(-c2cc(O)cc3cccc(F)c23)c(F)c2nc(OC[C@@]34CCCN3C[C@H](F)C4)nc(N3CC4CCC(C3)N4)c12
IC50 [nM]: 0.8

cpd-smiles: C#Cc1c(F)ccc2cc(O)cc(-c3nc(OCCC(F)(F)F)c4c(N5CC6CCC(C5)N6)nc(OC[C@@]56CCCN5C[C@H](F)C6)nc4c3F)c12
IC50 [nM]: 0.6

Exercise: What does the record list as IC50 for "C#CCOc1nc(-c2cc(O)cc3ccc(F)c(C#C)c23)c(F)c2nc(OC[C@@]34CCCN3C[C@H](F)C4)nc(N3CC4CCC(C3)N4)c12" ?
Solution: 0.3

Exercise: Item "C#Cc1c(F)ccc2cc(O)cc(-c3nc(C#C)c4c(N5CC6CCC(C5)N6)nc(OC[C@@H]5CCCN5C)nc4c3F)c12" has what recorded IC50?
Solution: 1.2

Exercise: Which IC50 reading was recorded for the compound "C#Cc1nc(-c2cc(O)cc3cccc(Cl)c23)c(F)c2nc(OC[C@@]34CCCN3C[C@H](F)C4)nc(N3CC4CCC(C3)N4)c12" ?
Solution: 0.4

Exercise: What does the record list as IC50 for "C#Cc1c(F)ccc2cc(O)cc(-c3nc(C#CCCCC)c4c(N5CC6CCC(C5)N6)nc(OC[C@@]56CCCN5C[C@H](F)C6)nc4c3F)c12" ?
Solution: 0.5

Exercise: Recorded IC50 for "C#Cc1c(F)ccc2cc(O)cc(-c3nc(COC)c4c(N5CC6CCC(C5)N6)nc(OC[C@@]56CCCN5C[C@H](F)C6)nc4c3F)c12" , please?
Solution: 0.4

Exercise: Fill in the blank: the reported IC50 of "C#Cc1c(F)ccc2cc(O)cc(-c3nc(C#C)c4c(N5CC6CCC(C5)N6)nc(OCC5(CN6CCOCC6)CC5)nc4c3F)c12" is ____.
Solution: 0.4

Exercise: Record request: IC50 value, item "C#Cc1c(F)ccc2cc(O)cc(-c3nc(C#CCC(C)C)c4c(N5CC6CCC(C5)N6)nc(OC[C@@]56CCCN5C[C@H](F)C6)nc4c3F)c12"
Solution: 1

Exercise: Entry under review: "C#Cc1c(F)ccc2cc(O)cc(-c3nc(C#CCCC(C)C)c4c(N5CC6CCC(C5)N6)nc(OC[C@@]56CCCN5C[C@H](F)C6)nc4c3F)c12" . Reported IC50?
Solution: 0.8

Exercise: Can you share its IC50? I mean this compound: "C#Cc1c(F)ccc2cc(O)cc(-c3nc(C#C)c4c(N5CC6CCC(C5)N6)nc(OCC5(CN(C)C)CC5)nc4c3F)c12"
Solution: 1.5

* * *

Measured microsomal CLint at 1 μM, listed per entry.
experiment: Stability in mouse liver microsomes
Type: in vitro ADME
run-parameters: mouse, microsomes, pH 7.4
Give the value in µL/min/mg but do not write µL/min/mg after it.

cpd-smiles: C#Cc1c(F)ccc2cc(O)cc(-c3nc(C#C)c4c(N5CC6CCC(C5)N6)nc(OCC56CCCN5CCC6)nc4c3F)c12
microsomal CLint at 1 μM / µL/min/mg: 8.1

Then this compound:
Exercise: For "C#Cc1c(F)ccc2cc(O)cc(-c3nc(C#CCCCC)c4c(N5CC6CCC(C5)N6)nc(OC[C@@]56CCCN5C[C@H](F)C6)nc4c3F)c12" , what is its reported microsomal CLint at 1 μM?
Solution: 13.5

* * *

assayed-system: KRAS G12D-GTP & SOS1 (Homo sapiens (Human), UniProt P01116, G12D)
Sequence (P01116-2 other isoform, or with tags, fused parts or gaps G12D): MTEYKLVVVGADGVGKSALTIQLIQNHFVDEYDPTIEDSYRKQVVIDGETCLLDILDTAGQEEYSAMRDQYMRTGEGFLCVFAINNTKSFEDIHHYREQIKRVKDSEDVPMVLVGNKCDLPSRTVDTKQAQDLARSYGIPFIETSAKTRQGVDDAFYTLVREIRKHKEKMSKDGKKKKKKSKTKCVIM
experiment: KRAS G12D/SOS1 binding experiment (HTRF)
run-parameters: competitive binding
The reader will find reported IC50 values listed item by item below.
Report as: number unit

Examples from the recorded data:
cpd-smiles: C#Cc1c(F)ccc2cc(O)cc(-c3nc(C#C)c4c(N5CC6CCC(C5)N6)nc(OCC5(CN(C)C)CC5)nc4c3F)c12
assayed-system: KRAS G12D-GTP & SOS1 (Homo sapiens (Human), UniProt P01116, G12D)
IC50: 15.2 nM
--
cpd-smiles: C#Cc1nc(-c2cc(O)cc3cccc(Cl)c23)c(F)c2nc(OC[C@@]34CCCN3C[C@H](F)C4)nc(N3CC4CCC(C3)N4)c12
assayed-system: KRAS G12D-GTP & SOS1 (Homo sapiens (Human), UniProt P01116, G12D)
IC50: 13.5 nM

# ---- query compound ----
Exercise: Fill in the blank: the reported IC50 of "C#Cc1nc(-c2cc(O)cc3cccc(F)c23)c(F)c2nc(OC[C@@]34CCCN3C[C@H](F)C4)nc(N3CC4CCC(C3)N4)c12" is ____.
Solution: 16.6 nM

* * *

experiment: Stability in human liver microsomes
Assay type: in vitro ADME
run-parameters: human, microsomes, pH 7.4
property: microsomal CLint at 1 μM

compound: C#Cc1c(F)ccc2cc(O)cc(-c3nc(C#CCCCC)c4c(N5CC6CCC(C5)N6)nc(OC[C@@]56CCCN5C[C@H](F)C6)nc4c3F)c12 [Compound 39]
microsomal CLint at 1 μM: 15.2 µL/min/mg

We next turn to a different compound, shown below.
Exercise: Look up microsomal CLint at 1 μM: C#Cc1c(F)ccc2cc(O)cc(-c3nc(C#C)c4c(N5CC6CCC(C5)N6)nc(OCC56CCCN5CCC6)nc4c3F)c12 [Compound 54]
Solution: 4.4 µL/min/mg

* * *

experiment: Stability in human liver microsomes
Assay type: in vitro ADME
run-parameters: pH 7.4; human liver microsomes 0.5 mg/mL, 1 μM, 37° C.; read-out: CLint
property: microsomal CLint at 1 μM (µL/min/mg)
Give your result in µL/min/mg as a bare value.

compound: C#Cc1nc(-c2cc(O)cc3cccc(Cl)c23)c(F)c2nc(OC[C@@]34CCCN3C[C@H](F)C4)nc(N3CC4CCC(C3)N4)c12 [Compound 67]
microsomal CLint at 1 μM, µL/min/mg: 11.6

Exercise: For C#Cc1c(F)ccc2cc(O)cc(-c3nc(C#C)c4c(N5CC6CCC(C5)N6)nc(OC[C@@]56CCCN5C[C@H](F)C6)nc4c3F)c12 [Compound 23] , what is its reported microsomal CLint at 1 μM?
Solution: 18.4

* * *

assayed-system: KRAS G12D-GTP & SOS1 (Homo sapiens (Human), UniProt P01116, G12D)
experiment: KRAS G12D/SOS1 binding experiment (HTRF)
run-parameters: competitive binding
Threshold-based label: IC50 under 0.02 µM gives met, IC50 not under 0.02 µM gives not met.

cpd-smiles: C#Cc1c(F)ccc2cc(O)cc(-c3nc(C#C)c4c(N5CC6CCC(C5)N6)nc(OCCC(F)(F)F)nc4c3F)c12
class: met

cpd-smiles: C#Cc1c(F)ccc2cc(O)cc(-c3nc(C#C)c4c(N5C[C@@H]6C[C@H]5CN6)nc(OC[C@@]56CCCN5C[C@H](F)C6)nc4c3F)c12
class: not met

Exercise: Lab log: compare recorded IC50 with 0.02 µM; is it strictly lower for "C#Cc1c(F)ccc2cccc(-c3nc(C#C)c4c(N5CC6CCC(C5)N6)nc(OC[C@@]56CCCN5C[C@H](F)C6)nc4c3F)c12" ?
Solution: not met

Exercise: Dear colleague, could you confirm whether IC50 of "C#Cc1c(F)ccc2cc(O)cc(-c3nc(COC)c4c(N5CC6CCC(C5)N6)nc(OC[C@@]56CCCN5C[C@H](F)C6)nc4c3F)c12" falls below 0.02 µM? Thanks.
Solution: met

Exercise: Check if IC50 falls below 0.02 µM for "C#Cc1c(F)ccc2cc(O)cc(-c3nc(C#C)c4c(N5CC6CCC(C5)N6)nc(OCC5CCCC5)nc4c3F)c12" .
Solution: met

Exercise: Just wondering, is IC50 of "C#Cc1nc(-c2cc(O)cc3ccc(F)c(CC)c23)c(F)c2nc(OC[C@@]34CCCN3C[C@H](F)C4)nc(N3CC4CCC(C3)N4)c12" below 0.02 µM?
Solution: met
